Biological target: human FSH receptor (Homo sapiens)
Construct: expressed in transfected cells; host or cells: CHO (Chinese Hamster Ovary) cells, stably transfected, cotransfected with CRE-luciferase reporter
Sequence (P23945 18-695): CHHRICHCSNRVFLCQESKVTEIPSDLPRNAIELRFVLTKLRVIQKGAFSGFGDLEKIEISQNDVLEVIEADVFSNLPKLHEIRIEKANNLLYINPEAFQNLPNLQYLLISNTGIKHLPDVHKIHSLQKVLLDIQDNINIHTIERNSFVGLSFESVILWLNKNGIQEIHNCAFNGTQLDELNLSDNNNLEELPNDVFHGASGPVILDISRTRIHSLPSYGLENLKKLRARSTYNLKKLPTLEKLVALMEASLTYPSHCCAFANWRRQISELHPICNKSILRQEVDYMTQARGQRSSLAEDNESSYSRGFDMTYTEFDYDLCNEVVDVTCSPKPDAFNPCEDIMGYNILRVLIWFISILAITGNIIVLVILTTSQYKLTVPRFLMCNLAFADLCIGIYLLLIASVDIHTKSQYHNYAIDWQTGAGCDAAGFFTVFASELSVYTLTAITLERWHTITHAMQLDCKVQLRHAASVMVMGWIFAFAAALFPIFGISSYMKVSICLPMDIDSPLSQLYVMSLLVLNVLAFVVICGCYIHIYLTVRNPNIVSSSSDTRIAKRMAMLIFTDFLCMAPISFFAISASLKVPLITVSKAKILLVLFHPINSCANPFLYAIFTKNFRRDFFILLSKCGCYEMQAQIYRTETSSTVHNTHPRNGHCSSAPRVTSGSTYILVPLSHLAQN
Assay: Agonistic activity at the human FSH receptor expressed in CHO cells (CRE-luciferase reporter)
Assay type: cell-based
Settings: CHO cells stably transfected with human FSH receptor and CRE/luciferase reporter; 4 hours incubation; pEC50 is -log EC50; read-out: hFSHRago (CHO luc) pEC50 (converted)
measured_parameter: EC50 (nM)

Below are worked cases with known answers.
>>> meas_value("COc1cc2c(cc1C(=O)N(C)CCO)-c1c(-c3cccs3)c3c(n1CC2)C(=O)N(C(C)(C)C)CCCC3 [Compound 26c8]")
5.37
>>> meas_value("COc1cc2c(cc1-c1cccnc1)-c1c(Cl)c3c(n1CC2)C(=O)N(C(C)(C)C)CCCC3 [Compound 19f]")
12.3

P. COCC(O)CNC(=O)c1cc2c(cc1OC)CCn1c3c(c(-c4cccs4)c1-2)CCCCN(C(C)(C)C)C3=O (stereo not shown) [Compound 26c6]
Q. COc1cc2c(cc1OC(C)C)-c1c(-c3cccs3)c3c(n1CC2)C(=O)N(C(C)C)CCN(C(C)=O)C3 [Compound 14f]
R. COc1cc2c(cc1NC(=O)CN(C)C)-c1c(-c3cccs3)c3c(n1CC2)C(=O)N(C(C)(C)C)CCCC3 [Compound 22b]
S. COc1cc2c(cc1-c1cccnc1)-c1c(-c3cccs3)c3c(n1CC2)C(=O)N(C(C)C)CCN(C(=O)C(C)C)C3 [Compound 10w]
T. COc1cc2c(cc1NC(=O)C(C)C)-c1c(-c3cccs3)c3c(n1CC2)C(=O)N(C(C)(C)C)CCC3 [Compound 3f]
## Input List by increasing EC50. State the ranking by listing the labels in the requested order.
## Output P, R, Q, T, S
